The measured values listed here are drawn from paper PMC7353009.

Target entity: T1, Hexa-His-tagged FkpB (wild type) (E. coli, UniProt P0AEM0 1-149)
T1 construct: FkpB, FKBP-type peptidyl-prolyl cis/trans isomerase, E. coli; minimal coding region of the fkpB gene in pET24b; also called wild-type FkpB; source: E. coli T7 express derivative lacking all six PPIs (SR21984), IPTG-induced; in lysate on Ni-NTA for co-elution; purified (Ni-NTA) for ITC; not shown: His6, C-terminal, kept
T1 sequence (looked up): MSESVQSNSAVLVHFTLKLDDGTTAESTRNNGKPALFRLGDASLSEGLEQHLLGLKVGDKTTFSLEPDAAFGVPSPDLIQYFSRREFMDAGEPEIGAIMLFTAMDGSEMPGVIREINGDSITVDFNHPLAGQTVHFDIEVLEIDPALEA
Assay explanation: ITC; Nano ITC; 200 μM peptide in the cell titrated with 2 mM protein, 25 injections of 2 μL, 20 °C, 20 mM sodium phosphate pH 7.5, 100 mM NaCl; 1:1 binding model
Condition label: both partners purified
Metric name: pKd
Scale explanation: pKd corresponds to minus log10 of a concentration expressed in moles per litre.

Fill in the blank: the reported pKd of IIEEEPVRQPATL (peptide from the conserved regions of the N-terminal domain of RseA, E. coli) [RseA peptide Rse3] is ____.
4.89

Fill in the blank: the reported pKd of TRYWNPKMKPFIFGA (This paper prints neither letters nor limits. Limits 20-34 are recalled from the SlyD/FKBP S2 peptide of the cited work (ref. 12), as are the check residues. Terminal modifications unknown.) [S2-derived peptide] is ____.
4.73

Fill in the blank: the reported pKd of RATFVVDPQGI (peptide from AhpC (alkyl hydroperoxide reductase subunit C), E. coli; also called AhpC peptide) [AhpC-derived peptide] is ____.
4.33

Fill in the blank: the reported pKd of AAIMDCPVGTVRSRI (peptide derived from conserved region 4 of RpoE, E. coli) [RpoE peptide P4] is ____.
4.99

Fill in the blank: the reported pKd of YLVAQGRRPPSSDVD (peptide corresponding to the C-terminal end of conserved region 2.4 of RpoE, E. coli) [RpoE peptide P1] is ____.
4.42

Fill in the blank: the reported pKd of FRAREAIDNKVQPLIRR (peptide covering conserved region 4 of RpoE, E. coli, including R178) [RpoE peptide P3] is ____.
4.72

Fill in the blank: the reported pKd of KVASLVSRYVPSGDV (peptide derived from conserved region 2 of RpoE, E. coli) [RpoE peptide P2] is ____.
4.97

Fill in the blank: the reported pKd of QKEQLSALMDGETLDSELLNELAHNPEM (peptide, UniProt P0AFX7 2-29, looked up, peptide corresponding to amino acid 2-29 of N-RseA (N-terminal domain of the anti-sigma factor RseA), E. coli) [RseA peptide Rse1] is ____.
4.82
